Values were extracted from paper PMC9299988.

- Method Notes: in vitro
- Conditions: human
pIC50: −log10 of the molar value.
Property Label: pIC50

Query: Bench note: what pIC50 did O=C(CS)Nc1ccc(Cl)c(Cl)c1 [Compound 4, N‐(3,4‐dichlorophenyl) mercaptoacetamide] show?
Response: < 4.00

====

- Method Notes: Cytotoxicity assay, HepG2
- Conditions: human, HepG2 cells
Entries and their IC50

# Compound, IC50
records = [
    ("O=C(Nc1ccccc1)C(S)Cc1ccccc1 (centres unmarked)", "> 100 µM"),
]

With those in mind, consider the next compound.
Query: Bench note: what IC50 did Cc1ccc(NC(=O)C(S)Cc2ccccc2)cc1 (centres unmarked) show?
Response: > 100 µM

====

- Experimental Target: ADAM17 (Homo sapiens, UniProt P78536)
- Sequence (P78536 215-824): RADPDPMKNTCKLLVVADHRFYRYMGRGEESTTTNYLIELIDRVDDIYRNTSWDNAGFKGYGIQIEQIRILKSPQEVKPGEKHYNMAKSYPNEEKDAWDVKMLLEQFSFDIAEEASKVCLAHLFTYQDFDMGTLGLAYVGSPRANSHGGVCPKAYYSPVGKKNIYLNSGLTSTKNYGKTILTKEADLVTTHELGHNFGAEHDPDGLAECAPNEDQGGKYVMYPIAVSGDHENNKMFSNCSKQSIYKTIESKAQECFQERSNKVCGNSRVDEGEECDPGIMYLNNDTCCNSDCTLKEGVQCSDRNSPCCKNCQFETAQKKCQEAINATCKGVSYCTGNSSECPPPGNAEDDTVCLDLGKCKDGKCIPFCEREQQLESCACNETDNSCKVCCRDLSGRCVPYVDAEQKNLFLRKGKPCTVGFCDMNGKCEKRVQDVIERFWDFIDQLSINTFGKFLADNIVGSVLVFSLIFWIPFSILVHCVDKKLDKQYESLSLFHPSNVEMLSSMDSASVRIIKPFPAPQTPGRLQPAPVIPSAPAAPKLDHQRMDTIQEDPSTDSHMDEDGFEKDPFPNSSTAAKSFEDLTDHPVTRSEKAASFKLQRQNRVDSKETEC
- Method Notes: Inhibition assay with human off-target ADAM17 (TACE)
- Type: biochemical
Property Label: IC50

Query: Bench note: what IC50 did O=C(CS)Nc1ccc(Cl)c(Cl)c1 [Compound 4, N‐(3,4‐dichlorophenyl) mercaptoacetamide] show?
Response: > 100 µM

====

Entries and their IC50
- Experimental Target: UniProt:O15379
- Sequence (O15379 whole entry): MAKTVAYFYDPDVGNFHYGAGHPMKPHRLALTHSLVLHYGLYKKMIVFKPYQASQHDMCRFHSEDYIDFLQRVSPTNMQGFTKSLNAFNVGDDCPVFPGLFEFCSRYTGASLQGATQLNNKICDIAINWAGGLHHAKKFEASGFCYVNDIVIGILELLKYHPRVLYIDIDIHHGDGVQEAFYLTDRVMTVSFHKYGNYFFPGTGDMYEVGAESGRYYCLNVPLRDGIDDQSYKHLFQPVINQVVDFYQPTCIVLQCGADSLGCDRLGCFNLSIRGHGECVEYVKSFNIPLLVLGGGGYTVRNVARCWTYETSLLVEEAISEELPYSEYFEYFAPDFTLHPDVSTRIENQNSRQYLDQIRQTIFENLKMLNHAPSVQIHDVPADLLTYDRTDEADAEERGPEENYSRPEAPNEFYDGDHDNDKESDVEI
- Sequence (Q9Y618 395-489 partner limits assumed): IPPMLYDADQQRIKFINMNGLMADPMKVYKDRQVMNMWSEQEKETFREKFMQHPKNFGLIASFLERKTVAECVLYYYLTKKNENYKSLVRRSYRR

# Compound, IC50
records = [
    ("O=C(CS)Nc1ccc(Cl)c(Cl)c1 [Compound 4, N‐(3,4‐dichlorophenyl) mercaptoacetamide]", "> 100 µM"),
]

With those in mind, consider the next compound.
Query: Bench note: what IC50 did O=C(Nc1ccccc1)C(S)Cc1ccccc1 (centres unmarked) show?
Response: > 100 µM

====

- Method Notes: in vitro
- Conditions: human
Property Label: IC50

Query: Bench note: what IC50 did O=C(CS)Nc1ccc(Cl)c(Cl)c1 [Compound 4, N‐(3,4‐dichlorophenyl) mercaptoacetamide] show?
Response: > 100 µM

====

Reported pIC50 values, UniProt:Q9BY41.
Sequence (Q9BY41 whole entry): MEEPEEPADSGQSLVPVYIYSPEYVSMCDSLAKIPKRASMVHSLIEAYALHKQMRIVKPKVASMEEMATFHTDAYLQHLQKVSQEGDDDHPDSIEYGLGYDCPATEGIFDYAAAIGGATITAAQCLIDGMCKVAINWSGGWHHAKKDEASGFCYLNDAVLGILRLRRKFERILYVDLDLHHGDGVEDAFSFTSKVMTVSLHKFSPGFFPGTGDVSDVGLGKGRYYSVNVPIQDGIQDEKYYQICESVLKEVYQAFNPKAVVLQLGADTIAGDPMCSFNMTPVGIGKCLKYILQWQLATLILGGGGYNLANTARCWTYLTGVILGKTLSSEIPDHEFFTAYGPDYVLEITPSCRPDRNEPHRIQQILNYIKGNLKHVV
pIC50: −log10 of the molar value.

Query: Bench note: what pIC50 did O=C(CS)Nc1ccc(Cl)c(Cl)c1 [Compound 4, N‐(3,4‐dichlorophenyl) mercaptoacetamide] show?
Response: < 4.00

Query: Similarly, O=C(Nc1ccccc1)C(S)Cc1ccccc1 (centres unmarked) ?
Response: < 4.00

====

- Experimental Target: LasB (Pseudomonas aeruginosa, UniProt Q02RJ6)
- Construct: The purification of LasB from P. aeruginosa P14 supernatant and the; made in house; host or cells: P. aeruginosa PA14 (native producer), culture supernatant
- Sequence (Q02RJ6 198-498): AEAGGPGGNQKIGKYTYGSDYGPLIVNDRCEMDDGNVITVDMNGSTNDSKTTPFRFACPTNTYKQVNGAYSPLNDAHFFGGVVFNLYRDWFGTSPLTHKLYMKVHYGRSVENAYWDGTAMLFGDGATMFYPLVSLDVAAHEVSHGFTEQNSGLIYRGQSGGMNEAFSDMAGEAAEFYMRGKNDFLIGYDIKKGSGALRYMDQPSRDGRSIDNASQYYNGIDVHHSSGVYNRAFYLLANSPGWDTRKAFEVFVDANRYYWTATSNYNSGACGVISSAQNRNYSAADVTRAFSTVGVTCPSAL
- Method Notes: biochemical
- Assay type: biochemical
- Protocol: LasB Inhibition Assay. […] Preparation of P. aeruginosa supernatant and LasB activity evaluation. A culture of a single colony of PA14 was grown in lysogeny broth medium at 28 °C with constant shaking at 130 rpm for 3 days. Then, the culture was centrifuged at 4 °C, 5000 rpm for 30 minutes. Finally, the supernatant was passed through a membrane filter of […] to sterilize it. The supernatant
Entries and their pIC50
Scale: pIC50 equals -log10([C]), with [C] in mol/L.

Worked cases, pIC50 given:
# Compound, pIC50
data = [
    ("Cc1cccc(NC(=O)C(S)Cc2ccccc2)c1 (centres unmarked)", 6.00),
    ("Cc1ccccc1NC(=O)C(S)Cc1ccccc1 (centres unmarked)", 5.62),
    ("Cc1ccc(NC(=O)C(S)Cc2ccccc2)cc1 (centres unmarked)", 6.32),
    ("O=C(Nc1ccc(Cl)c(Cl)c1)C(S)CC1CC1 (centres unmarked)", 5.20),
]

Query: Bench note: what pIC50 did O=C(Nc1ccc(Cl)c(Cl)c1)C(S)CC1CCCCC1 (centres unmarked) show?
Response: 4.92
